- Tested on: LXF-289
- test.protocol: relative viability (nuclei count vs DMSO), 5 days (fraction); higher = more cells survive
- cond: first compound 0.08 µM
assay.endpoint: relative viability
One number for each entry.

Worked set:
input: Please supply the value of reported relative viability for the item CCCCCCCCCCCC1=C(O)C(=O)C=C(O)C1=O [Embelin] + Nc1nc2[nH]cc(CCc3ccc(C(=O)N[C@@H](CCC(=O)O)C(=O)O)cc3)c2c(=O)[nH]1 [Pemetrexed] (partner 0.2 µM)
output: 0.863

input: Please supply the value of reported relative viability for the item CCCCCCCCCCCC1=C(O)C(=O)C=C(O)C1=O [Embelin] + C[C@]1(O)C[C@@H](c2nc(-c3ccc4ccc(-c5ccccc5)nc4c3)c3c(N)nccn32)C1 [Linsitinib] (partner 1 µM)
output: 0.991

input: Please supply the value of reported relative viability for the item CCCCCCCCCCCC1=C(O)C(=O)C=C(O)C1=O [Embelin] + O=C(CCCCCCC(=O)Nc1ccccc1)NO [Vorinostat] (partner 1 µM)
output: 0.803

input: Please supply the value of reported relative viability for the item CCCCCCCCCCCC1=C(O)C(=O)C=C(O)C1=O [Embelin] + CC(=O)c1c(C)c2cnc(Nc3ccc(N4CCNCC4)cn3)nc2n(C2CCCC2)c1=O [Palbociclib] (partner 0.5 µM)
output: 0.594

input: Please supply the value of reported relative viability for the item CCCCCCCCCCCC1=C(O)C(=O)C=C(O)C1=O [Embelin] + Cc1nc(Nc2ncc(C(=O)Nc3c(C)cccc3Cl)s2)cc(N2CCN(CCO)CC2)n1 [Dasatinib] (partner 0.075 µM)
output: 0.212

Turning now to a further compound:
input: Please supply the value of reported relative viability for the item CCCCCCCCCCCC1=C(O)C(=O)C=C(O)C1=O [Embelin] + CCNC(=O)c1noc(-c2cc(C(C)C)c(O)cc2O)c1-c1ccc(CN2CCOCC2)cc1 [Luminespib] (partner 0.01 µM)
output: 0.548
